system: Hepatitis C virus; test: Antiviral activity against Hepatitis C virus subtype 1b replicon in by replicon assay in presence of adenosine deaminase inhibitor pentostatin; assay type: functional, organism-based; conditions: Hepacivirus hominis; genotype 1b
Active and inactive are the calls of the source. The rule behind the calls is not given here.
quantity: Activity

Examples from the recorded data:
CCOc1nc(N)nc2c1ncn2[C@@H]1O[C@H](COP(=O)(N[C@@H](C)C(=O)O[C@@H](C)c2ccccc2)Oc2cccc3ccccc23)[C@@H](O)[C@@]1(C)O (some centres undefined); inactive
CCOc1nc(N)nc2c1ncn2[C@@H]1O[C@H](COP(=O)(N[C@@H](C)C(=O)OC(C)C)Oc2cccc3ccccc23)[C@@H](O)[C@@]1(C)O (some centres undefined); inactive
CNc1nc(N)nc2c1ncn2[C@@H]1O[C@H](COP(=O)(N[C@@H](C)C(=O)OCC(C)(C)C)Oc2cccc3ccccc23)[C@@H](O)[C@@]1(C)O (some centres undefined); inactive
COc1nc(N)nc2c1ncn2[C@@H]1O[C@H](COP(=O)(N[C@@H](C)C(=O)OCC(C)(C)C)Oc2cccc3ccccc23)[C@@H](O)[C@@]1(C)O (some centres undefined); inactive
CCOc1nc(N)nc2c1ncn2[C@@H]1O[C@H](COP(=O)(N[C@@H](C)C(=O)OCc2ccc(F)cc2F)Oc2cccc3ccccc23)[C@@H](O)[C@@]1(C)O (some centres undefined); inactive
CCOc1nc(N)nc2c1ncn2[C@@H]1O[C@H](COP(=O)(N[C@H](C(=O)OCC(C)(C)C)C(C)C)Oc2cccc3ccccc23)[C@@H](O)[C@@]1(C)O (some centres undefined); inactive

So what does the record say about Activity for CSc1nc(N)nc2c1ncn2[C@@H]1O[C@H](COP(=O)(N[C@@H](C)C(=O)OCC(C)(C)C)Oc2cccc3ccccc23)[C@@H](O)[C@@]1(C)O (some centres undefined) ?
inactive

Look up Activity for this compound: C[C@H](NP(=O)(OC[C@H]1O[C@@H](n2cnc3c(Cl)nc(N)nc32)[C@](C)(O)[C@@H]1O)Oc1cccc2ccccc12)C(=O)OCC(C)(C)C (some centres undefined)
inactive

Quick one: Activity for C[C@H](NP(=O)(OC[C@H]1O[C@@H](n2cnc3c(NCCc4ccccc4)nc(N)nc32)[C@](C)(O)[C@@H]1O)Oc1cccc2ccccc12)C(=O)OCC(C)(C)C (some centres undefined) ?
inactive

src = ChEMBL document CHEMBL1833898
